# Tested on: A2058 cells
# protocol text: Cell viability assay (Cell-Titer-Glo) in A2058 cells
# Assay type: cell-based
# condition notes: Homo sapiens, 48 hour treatment, test compounds 1 nM to 1 μM
measured attribute: log10 of IC50 (log10 of the value in nM)
# log10 transformed; quantity=IC50; unit=nM

In: Complete the entry with log10 of IC50 for COC(=O)Nc1coc(-c2nc3oc2C24c5ccccc5N[C@H]2Oc2ccc(cc24)CC(NC(=O)[C@@H](O)C(C)C)C(=O)N[C@H]3C(C)C)n1 (stereo partly shown)
Out: 2.37

In: Complete the entry with log10 of IC50 for COC(=O)c1coc(-c2nc3oc2C24c5ccccc5NC2Oc2ccc(cc24)C[C@H](NC(=O)[C@@H](O)C(C)C)C(=O)N[C@H]3C(C)(C)C)n1 (stereo partly shown)
Out: 1.72

In: Complete the entry with log10 of IC50 for COC(=O)c1coc(-c2nc3oc2C24c5cc(ccc5O[C@@H]2N(C)c2ccccc24)C[C@H](NC(=O)[C@@H](O)C(C)C)C(=O)N[C@H]3C(C)C)n1 (stereo partly shown)
Out: 2.06

In: Complete the entry with log10 of IC50 for CC(C)[C@H](O)C(=O)N[C@H]1Cc2ccc3c(c2)[C@]2(C4=C(c5nc(CC(F)(F)F)co5)N=C(O4)[C@H](C(C)C)NC1=O)c1ccccc1NC2O3 (stereo partly shown)
Out: 2.67

In: Complete the entry with log10 of IC50 for CC(C)[C@H](O)C(=O)NC1Cc2ccc3c(c2)C2(C4=C(c5nc(C6OCCO6)co5)N=C(O4)[C@H](C(C)C)NC1=O)c1ccccc1N[C@H]2O3 (stereo partly shown)
Out: 1.69

In: Complete the entry with log10 of IC50 for CC(C)[C@H](O)C(=O)NC1Cc2ccc3c(c2)C2(C4=C(c5nc(CNS(C)(=O)=O)co5)N=C(O4)[C@H](C(C)C)NC1=O)c1ccccc1N[C@H]2O3 (stereo partly shown)
Out: 2.18

In: Complete the entry with log10 of IC50 for COC(=O)c1coc(-c2nc3oc2[C@]24c5ccccc5NC2Oc2ccc(cc24)C[C@H](NC(=O)[C@@H](O)C(C)C)C(=O)N[C@H]3C(C)(C)C)n1 (stereo partly shown)
Out: 2.34

In: Complete the entry with log10 of IC50 for COC(=O)c1coc(-c2nc3oc2C24c5ccc(F)cc5N[C@H]2Oc2ccc(cc24)C[C@H](NC(=O)[C@@H](O)C(C)C)C(=O)N[C@H]3C(C)C)n1 (stereo partly shown)
Out: 1.61

In: Complete the entry with log10 of IC50 for CC(C)[C@H](O)C(=O)NC1Cc2ccc3c(c2)C2(C4=C(c5nc(COC(=O)C(C)(C)C)co5)N=C(O4)[C@H](C(C)C)NC1=O)c1ccccc1N[C@H]2O3 (stereo partly shown)
Out: 1.60

In: Complete the entry with log10 of IC50 for CCC(C)(O)C(=O)N[C@H]1Cc2ccc3c(c2)C2(C4=C(c5nc(C#N)co5)N=C(O4)[C@H](C(C)(C)C)NC1=O)c1ccccc1N[C@H]2O3 (stereo partly shown)
Out: 1.32

In: Complete the entry with log10 of IC50 for CCC(O)(CC)C(=O)N[C@H]1Cc2ccc3c(c2)C2(C4=C(c5nc(C(=O)OC)co5)N=C(O4)[C@H](C(C)(C)C)NC1=O)c1ccccc1N[C@H]2O3 (stereo partly shown)
Out: 1.19

In: Complete the entry with log10 of IC50 for CC(C)[C@H](O)C(=O)N[C@H]1Cc2ccc3c(c2)C2(C4=C(c5nc(COP(=O)(O)O)co5)N=C(O4)[C@H](C(C)C)NC1=O)c1ccccc1N[C@H]2O3 (stereo partly shown)
Out: 1.85

In: Complete the entry with log10 of IC50 for CC(C)[C@H](O)C(=O)N[C@H]1Cc2ccc3c(c2)[C@]2(C4=C(c5nc(CO)co5)N=C(O4)[C@H](C(C)(C)C)NC1=O)c1ccccc1N[C@@H]2O3
Out: 0.92

In: Complete the entry with log10 of IC50 for COC(=O)c1coc(-c2nc3oc2C24c5cc(F)ccc5N[C@H]2Oc2ccc(cc24)C[C@H](NC(=O)[C@@H](O)C(C)C)C(=O)N[C@H]3C(C)C)n1 (stereo partly shown)
Out: 1.13

In: Complete the entry with log10 of IC50 for COC(=O)c1coc(-c2nc3oc2C24c5cc(Cl)ccc5N[C@H]2Oc2ccc(cc24)C[C@H](NC(=O)[C@@H](O)C(C)C)C(=O)N[C@H]3C(C)(C)C)n1 (stereo partly shown)
Out: 1.29

src = patent US8592469B2
